Read-out record for HCV polymerase (Hepatitis C virus genotype 1b, UniProt Q9WMX2): pIC50
Numbers only, as −log10 of the molar value.

{"columns": ["COMPOUND", "STUDY SYSTEM", "pIC50"],
 "data": [
  ["CC(C)(C)C#Cc1cc(N2C(=O)CN(S(=O)(=O)c3ccc4oc(=O)[nH]c4c3)C[C@H]2C2CCCCC2)c(C(=O)O)s1 [Compound 252]", "HCV polymerase (Hepatitis C virus genotype 1b, UniProt Q9WMX2)", 8.70],
  ["CC(C)(C)C#Cc1cc(N2C(=O)[C@](C)(CC#N)OC[C@H]2C2CCCCC2)c(C(=O)O)s1 [Compound 312]", "HCV polymerase (Hepatitis C virus genotype 1b, UniProt Q9WMX2)", 8.70],
  ["O=C(O)c1sc(-c2ccccc2)cc1N1C(=O)CN(CC2CCCCC2)C[C@H]1C1CCCCC1 [Compound 265]", "HCV polymerase (Hepatitis C virus genotype 1b, UniProt Q9WMX2)", 6.22],
  ["O=C(O)c1sc(-c2ccccc2)cc1N1C(=O)CN(S(=O)(=O)c2ccc(C3=CCCC3)nc2)C[C@H]1C1CCCCC1 [Compound 215]", "HCV polymerase (Hepatitis C virus genotype 1b, UniProt Q9WMX2)", 8.70],
  ["N#Cc1ccccc1-c1ccc(S(=O)(=O)N2CC(=O)N(c3cc(-c4ccccc4)sc3C(=O)O)[C@H](C3CCCCC3)C2)cn1 [Compound 213]", "HCV polymerase (Hepatitis C virus genotype 1b, UniProt Q9WMX2)", 9.00]
]}

For every item below, please supply its pIC50.
1. CN(C)c1ccc(CN2CC(=O)N(c3cc(-c4ccccc4)sc3C(=O)O)[C@H](C3CCCCC3)C2)cc1 [Compound 270]
2. CC(C)(C)OC(=O)NCC1CCN(c2ccc(S(=O)(=O)N3CC(=O)N(c4cc(-c5ccccc5)sc4C(=O)O)[C@H](C4CCCCC4)C3)cn2)CC1 [Compound 149]

**Result**
1: 7.72; 2: 8.52

Count: 2. Required value per item: pIC50.
1. COc1ccc(S(=O)(=O)N2CC(=O)N(c3cc(C#CC(C)(C)C)sc3C(=O)O)[C@H](C3CCCCC3)C2)cc1OC [Compound 277]
2. CCC1(CC)CN(c2ccc(S(=O)(=O)N3CC(=O)N(c4cc(-c5ccccc5)sc4C(=O)O)[C@H](C4CCCCC4)C3)cn2)CCO1 [Compound 218]

**Result**
[8.70, 9.00]

For every item below, please supply its pIC50.
1. C[C@@H]1CN(c2ccc(S(=O)(=O)N3CC(=O)N(c4cc(-c5ccc(F)cc5)sc4C(=O)O)[C@H](C4CCCCC4)C3)cn2)C[C@H](C)O1 [Compound 278]
2. CN1CCOc2cc(S(=O)(=O)N3CC(=O)N(c4cc(-c5ccccc5)sc4C(=O)O)C(C4CCCCC4)C3)cnc21 (centres unmarked) [Compound 99]
3. CC(=O)Nc1ccc(S(=O)(=O)N2CC(=O)N(c3cc(-c4ccccc4)sc3C(=O)O)C(C3CCCCC3)C2)cc1 (centres unmarked) [Compound 50]
4. COc1ccccc1S(=O)(=O)N1CC(=O)N(c2cc(C#CC(C)(C)C)sc2C(=O)O)[C@H](C2CCCCC2)C1 [Compound 258]
5. C[C@@H]1CN(c2ccc(S(=O)(=O)N3CC(=O)N(c4cc(-c5ccccc5)sc4C(=O)O)[C@H](C4CCCCC4)C3)cn2)CCN1 [Compound 140]

**Result**
1: 9.00; 2: 8.70; 3: 8.15; 4: 8.15; 5: 9.00
